System: Mus musculus
Assay: Hypolipidemic activity in CF1 male mice at a dose of 20 mg/kg per day, serum triglyceride measured on the 16th day
Assay type: functional
// returns rule not met unless Serum triglyceride, % of control is strictly below 70%, in which case rule met

The examples below pair each entry with its known result.
>>> df
                          compound  measurement_target  class_name
0            CCC1C(=O)c2ccccc2C1=O        Mus musculus    rule met
1  O=C1c2ccccc2C(=O)C1c1ccc(Br)cc1        Mus musculus    rule met

Next:
Input line: Is it true that Serum triglyceride, % of control reported for O=C1c2ccccc2C(=O)C1c1ccc(Cl)cc1 is less than 70%?
Output line: rule met

----------
Target: Cholesterol 7-alpha-hydroxylase (Cytochrome P450 7A1) (Mus musculus)
Assay: In vivo effect on Cholesterol 7-alpha-hydroxylase activity in CF1 mice after 16 days at 60 mg/kg oral dose
Assay type: functional, organism-based
Design: dose 60 mg/kg, route oral
Details: read-out: Control
TEST_READOUT: activity at 384 h
Please append the unit to your numeric answer.

Input line: Consider the compound COc1ccc(C2C(=O)c3ccccc3C2=O)cc1 and give its measured activity at 384 h.
Output line: 60%

----------
Biological target: Cholesterol 7-alpha-hydroxylase (Cytochrome P450 7A1) (Mus musculus)
Test: In vitro percent Cholesterol 7-alpha-hydroxylase activity in mouse CF1 liver microsomes at 200 uM
Parameters: species or system Microsome
Settings: read-out: Control
TEST_READOUT: activity at 200 µM (%)
Numbers only, in %.

Input line: Consider the molecule COc1ccc(C2C(=O)c3ccccc3C2=O)cc1 and give its measured activity at 200 µM.
Output line: 113

----------
Target: Cholesterol 7-alpha-hydroxylase (Cytochrome P450 7A1) (Mus musculus, UniProt Q64505)
Sequence (Q64505 whole entry): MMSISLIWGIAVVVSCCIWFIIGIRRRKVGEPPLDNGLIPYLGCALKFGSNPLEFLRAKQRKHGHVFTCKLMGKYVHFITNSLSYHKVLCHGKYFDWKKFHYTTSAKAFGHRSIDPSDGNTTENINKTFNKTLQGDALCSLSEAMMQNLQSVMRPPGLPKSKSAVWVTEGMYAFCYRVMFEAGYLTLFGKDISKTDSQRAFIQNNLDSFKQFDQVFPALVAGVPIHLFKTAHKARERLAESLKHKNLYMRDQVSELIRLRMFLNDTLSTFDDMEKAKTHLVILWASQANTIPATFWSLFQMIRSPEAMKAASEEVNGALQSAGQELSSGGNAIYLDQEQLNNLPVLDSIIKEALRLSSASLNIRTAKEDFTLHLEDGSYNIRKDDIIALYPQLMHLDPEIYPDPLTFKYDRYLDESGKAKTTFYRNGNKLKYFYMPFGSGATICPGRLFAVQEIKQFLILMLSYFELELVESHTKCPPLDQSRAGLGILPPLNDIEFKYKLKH
Assay: In vitro percent Cholesterol 7-alpha-hydroxylase activity in mouse CF1 liver microsomes at 100 uM
Parameters: species or system Microsome
Settings: read-out: Control
TEST_READOUT: activity at 100 µM (%)
Give bare numbers, in %.

Input line: Consider the compound COc1ccc(C2C(=O)c3ccccc3C2=O)cc1 [ANISINDIONE] and give its measured activity at 100 µM.
Output line: 144

----------
System: Mus musculus
Assay: Hypolipidemic activity in CF1 male mice at a dose of 20 mg/kg per day, serum triglyceride measured on the 16th day
Format: functional
Classes by Serum triglyceride, % of control: bucket A (below 60%), bucket B (60% to below 70%), bucket C (70% or more)

In [3]: df
Out[3]:
                            compound  class_name
0  Cc1ccc(C2C(=O)c3ccccc3C2=O)c(C)c1    bucket A

Input line: Lab log: COc1ccccc1C1C(=O)c2ccccc2C1=O — assign Serum triglyceride, % of control category
Output line: bucket A

Input line: Lab log: O=C1c2ccccc2C(=O)C1c1ccc(Cl)c(Cl)c1 — assign Serum triglyceride, % of control category
Output line: bucket C

----------
System: Mus musculus
Test: Hypolipidemic activity in CF1 male mice at a dose of 20 mg/kg per day, serum triglyceride measured on the 16th day
Type: functional
TEST_READOUT: Serum triglyceride, % of control (%)
Answers are plain numbers, in %.

Look over these answered cases.
In [3]: df
Out[3]:
                                   compound  readout_value
0                  CCCCCC1C(=O)c2ccccc2C1=O             70
1            Cc1ccc(C2C(=O)c3ccccc3C2=O)cc1             42
2                    CCCC1C(=O)c2ccccc2C1=O             52
3  CCOC(=O)C(C)(C)Oc1ccc(Cl)cc1 [CLOFIBRATE]             75
4                   CCCCC1C(=O)c2ccccc2C1=O             63

The following compounds each have a reported value; give each one's Serum triglyceride, % of control.
1. O=C1c2ccccc2C(=O)C1c1cccc(Cl)c1
2. Cc1cccc(C2C(=O)c3ccccc3C2=O)c1
3. CCOc1ccc(C2C(=O)c3ccccc3C2=O)cc1
4. Cc1ccccc1C1C(=O)c2ccccc2C1=O
5. O=C1c2ccccc2C(=O)C1c1ccc(Cl)cc1Cl
6. O=C1CC(=O)c2ccccc21

Output line:
1: 70; 2: 51; 3: 81; 4: 49; 5: 87; 6: 79

The following compounds each have a reported value; give each one's Serum triglyceride, % of control.
1. O=C1c2ccccc2C(=O)C1c1ccc2ccccc2c1
2. CC1C(=O)c2ccccc2C1=O
3. COc1ccc(C2C(=O)c3ccccc3C2=O)cc1OC
4. COc1cccc(C2C(=O)c3ccccc3C2=O)c1
5. O=C1c2ccccc2C(=O)C1c1ccccc1 [PHENINDIONE]

Output line:
66
61
66
55
60

The following compounds each have a reported value; give each one's Serum triglyceride, % of control.
1. O=C1c2ccccc2C(=O)C1c1ccc(-c2ccccc2)cc1
2. COc1ccc(C2C(=O)c3ccccc3C2=O)c(OC)c1

Output line:
[63, 87]

The following compounds each have a reported value; give each one's Serum triglyceride, % of control.
1. COc1ccc(C2C(=O)c3ccccc3C2=O)cc1 [ANISINDIONE]
2. O=C1c2ccccc2C(=O)C1c1c(Cl)cccc1Cl

Output line:
42
61

Input line: Consider the compound O=C1c2ccccc2C(=O)C1c1ccccc1Cl and give its measured Serum triglyceride, % of control.
Output line: 55
